tested system: PNA (peanut lectin, peanut agglutinin) (Arachis hypogaea, UniProt P02872)
Sequence (P02872 24-259): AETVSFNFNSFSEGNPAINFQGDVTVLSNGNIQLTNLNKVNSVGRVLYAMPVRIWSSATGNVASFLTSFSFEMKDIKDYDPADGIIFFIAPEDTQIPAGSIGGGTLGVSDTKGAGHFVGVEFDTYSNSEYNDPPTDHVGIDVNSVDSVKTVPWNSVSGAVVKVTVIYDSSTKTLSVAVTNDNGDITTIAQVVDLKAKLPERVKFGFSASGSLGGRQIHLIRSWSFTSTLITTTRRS
protocol notes: isothermal titration calorimetry
Type: binding
assay metric: Kd (µM)
Numbers only, in µM.

Example compounds with recorded Kd:
{"compound": "OC[C@H]1O[C@@H](S[C@@H]2O[C@H](CSCc3cn(C[C@H]4O[C@H](O[C@H]5O[C@H](Cn6cc(CSC[C@H]7O[C@@H](S[C@@H]8O[C@H](CO)[C@H](O)[C@H](O)[C@H]8O)[C@H](O)[C@@H](O)[C@@H]7O)nn6)[C@@H](O)[C@H](O)[C@H]5O)[C@H](O)[C@@H](O)[C@@H]4O)nn3)[C@@H](O)[C@H](O)[C@H]2O)[C@H](O)[C@@H](O)[C@H]1O", "u": "µM", "Kd": 161}
{"compound": "CO[C@H]1O[C@H](Cn2cc(CNC(=O)CCC(=O)N[C@@H]3O[C@H](CO)[C@H](O)[C@H](O)[C@H]3O)nn2)[C@@H](O)[C@H](O)[C@H]1O", "u": "µM", "Kd": 1620}

Quick batch: Kd for everything below.
1. C#CCSC[C@H]1O[C@@H](S[C@@H]2O[C@H](CO)[C@H](O)[C@H](O)[C@H]2O)[C@H](O)[C@@H](O)[C@@H]1O
2. O=C(NCc1cn(C2COC3C2OCC3n2cc(CNC(=O)[C@H](O)[C@@H](O)C(=O)N[C@@H]3O[C@H](CO)[C@H](O)[C@H](O)[C@H]3O)nn2)nn1)[C@H](O)[C@@H](O)C(=O)N[C@@H]1O[C@H](CO)[C@H](O)[C@H](O)[C@H]1O (stereo partly shown)

552
544
